Tested on: SW-620
protocol summary: Growth inhibition of human SW620 cells after 48 hrs by sulforhodamine B assay
Format: functional
applied conditions: SW-620, 48 h
Could you please report measured TGI for the items listed next?

Consider the following illustrative entries.
COc1cc(C)cc(-c2c(-c3ccnc(-c4ccc(N(C)C)cc4)c3)cnn2CC#N)c1 :: > 100 µM
COc1cc(C)cc(-c2nn(CC#N)cc2-c2ccnc(-c3ccc(N(C)C)cc3)c2)c1 :: > 100 µM

Next, consider the following molecule.
TGI reported for this molecule `COc1cc(C)cc(-c2c(-c3ccnc(-c4ccc(C(C)=O)cc4)c3)cnn2CC#N)c1` : > 100 µM
